Molecular target: Histone deacetylase 8 (Homo sapiens, UniProt Q9BY41)
Sequence (Q9BY41 whole entry): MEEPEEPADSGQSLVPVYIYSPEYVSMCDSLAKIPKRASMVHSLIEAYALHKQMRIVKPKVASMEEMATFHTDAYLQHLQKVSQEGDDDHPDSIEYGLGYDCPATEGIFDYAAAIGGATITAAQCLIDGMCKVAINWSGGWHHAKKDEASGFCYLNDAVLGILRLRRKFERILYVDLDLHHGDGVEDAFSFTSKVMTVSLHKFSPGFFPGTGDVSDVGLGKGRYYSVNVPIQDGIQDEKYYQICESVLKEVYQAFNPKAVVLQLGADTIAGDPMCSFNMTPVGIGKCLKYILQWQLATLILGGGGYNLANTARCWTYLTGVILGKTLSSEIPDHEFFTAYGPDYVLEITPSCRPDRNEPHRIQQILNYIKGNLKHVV
Test: Inhibition of recombinant human full length C-terminal His-tagged HDAC8 expressed in sf9 insect cells using Boc-Lys(TFA)-AM as substrate incubated for 60 mins by fluorescence assay
pIC50: −log10 of the molar value.
We use 8 as the dividing line for pIC50: on or above the line is fulfilled, below is not fulfilled.

Molecule: COc1cccc(-c2ccc3c(NC(=O)CCCCCCC(=O)NO)n[nH]c3c2)c1
Answer label: fulfilled
//
Molecule: COc1ccccc1-c1ccc2c(NC(=O)CCCCCCC(=O)NO)n[nH]c2c1
Answer label: fulfilled
//
Molecule: O=C(CCCCCCC(=O)Nc1n[nH]c2cc(-c3ccc(Cl)cc3)ccc12)NO
Answer label: fulfilled
//
Molecule: COc1cccc(-c2ccc3c(NC(=O)C4CCC(C(=O)NO)CC4)n[nH]c3c2)c1 (centres undefined)
Answer label: not fulfilled
//
Molecule: COc1cccc(-c2ccc3c(NC(=O)CCCCC(=O)NO)n[nH]c3c2)c1
Answer label: not fulfilled

Inquiry: Is pIC50 for COc1cccc(-c2ccc3c(NC(=O)CCCCCCC(=O)NO)n[nH]c3c2)c1F at or above 8?
Reply text: fulfilled

Inquiry: Is pIC50 for COc1ccc(-c2ccc3c(NC(=O)CCCCCCC(=O)NO)n[nH]c3c2)cc1 at or above 8?
Reply text: fulfilled

Inquiry: Is pIC50 for COc1cc(OC)cc(-c2ccc3c(NC(=O)CCCCCCC(=O)NO)n[nH]c3c2)c1 at or above 8?
Reply text: fulfilled
